- SYSTEM_TESTED: T1, human melanocortin-3 receptor (hMC3-R) (human, UniProt P41968 1-323)
- T1 construct: whole, on cells; membranes prepared from hMC3-R cells were used; also called Melanocortin Receptor 3
- EXPERIMENT_NOTES: 125I-NDP-α-MSH competition, hMC3-R membranes
Square brackets hold non-standard residues; d marks the D form. Ends that are not written are not given here. Nle = CCCC[C@H](N)C(=O)O
Overview of reported % Inhibition at 1 µM across a group of binders:
Hi! Could you send only the number? It should be in %, unit omitted.

Below, each entry is followed by its recorded % Inhibition at 1 µM result.
YV[Nle]GH[dF]RCWDRF-NH2 (not fully specified (bridges); printed as Tyr-Val-Nle-Gly-His-D-Phe-Arg-Cys-Trp-Asp-Arg-Phe-NH2; also: bridge at 8 via Re(V)=O, other end not in the chain) [metallopeptide 3-5]; 45
YVC[Nle]GH[dF]RWDRF-NH2 (bridge (positions not given here); not fully specified (bridges); printed as Tyr-Val-Cys-Nle-Gly-His-D-Phe-Arg-Trp-Asp-Arg-Phe-NH2.; also: oxorhenium(V) N3S1 complex) [metallopeptide 3-11]; 85
YV[Nle]GH[dF]RWDCRF-NH2 (not fully specified (bridges); printed as Tyr-Val-Nle-Gly-His-D-Phe-Arg-Trp-Asp-Cys-Arg-Phe-NH2; also: oxorhenium(V) N3S1 chelate (backbone N of W8, D9, C10 and C10 S)) [metallopeptide 3-3]; 95
YV[Nle]GCH[dF]RWDRF-NH2 (also: oxorhenium(V) N3S1 chelate: C5 SG + backbone N of X3, G4, C5, bridge at 5 via Re(V)=O, other end not in the chain) [metallopeptide 3-9]; 69
YV[Nle]CGH[dF]RWDRF-NH2 (also: Re(V)=O N3S1 chelate via V2 N, Nle3 N, Cys4 N and S (ReOCl3(PPh3)2)) [metallopeptide 3-10]; 78
YV[Nle]GH[dF]RWCDRF-NH2 (not fully specified (bridges); printed as Tyr-Val-Nle-Gly-His-D-Phe-Arg-Trp-Cys-Asp-Arg-Phe-NH2; also: oxorhenium(V) N3S1 chelate (backbone N of R7, W8, C9 and C9 S)) [metallopeptide 3-4]; 88

Request: Query (binder): YVXGHFRWDRF (Nle 3 (X in letters); D-Phe 6; C-terminal amide, not complexed to Re) [[Nle3, D-Phe6]-γ-MSH parent polypeptide Tyr-Val-Nle-Gly-His-D-Phe-Arg-Trp-Asp-Arg-Phe-NH2] ; field requested: % Inhibition at 1 µM
Response: 100
